TESTED ON: Tyrosine-protein kinase Fyn (Homo sapiens, UniProt P06241)
Sequence (P06241 2-537 limits assumed): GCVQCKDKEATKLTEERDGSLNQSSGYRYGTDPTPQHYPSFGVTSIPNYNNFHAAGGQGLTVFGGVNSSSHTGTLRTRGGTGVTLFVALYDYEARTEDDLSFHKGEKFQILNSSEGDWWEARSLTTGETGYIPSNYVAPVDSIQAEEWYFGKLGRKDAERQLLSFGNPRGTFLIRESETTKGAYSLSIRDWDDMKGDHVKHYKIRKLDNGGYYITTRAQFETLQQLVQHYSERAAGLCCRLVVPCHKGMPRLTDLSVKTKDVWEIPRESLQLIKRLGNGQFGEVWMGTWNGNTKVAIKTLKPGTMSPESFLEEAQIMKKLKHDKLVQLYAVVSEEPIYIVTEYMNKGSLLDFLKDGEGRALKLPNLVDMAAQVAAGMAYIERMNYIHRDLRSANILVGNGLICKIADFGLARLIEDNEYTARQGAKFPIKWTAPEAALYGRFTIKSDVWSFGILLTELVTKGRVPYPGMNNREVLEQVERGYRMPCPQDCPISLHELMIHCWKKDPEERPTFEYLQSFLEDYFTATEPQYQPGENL
ASSAY TEXT: Inhibition of amyloid beta-induced Fyn activation in hiPSC neural cells assessed as reduction in tau phosphorylation at Thr 181 residue at 10 uM measured after 4 days by DAPI/Alexa fluor 594 staining based immunocytochemistry analysis
EXPERIMENTAL CONDITIONS: Induced pluripotent stem cell-derived neuron, time 4.0 day
Calls of active or inactive are those of the source. The rule behind the calls is not given here.
Choose the fitting class; nothing outside true for active, false for inactive is accepted.

• COC[C@H]1O[C@@H](c2ccc(OC(=O)c3ccccc3)c(OC(=O)c3ccccc3)c2)[C@H](OC)[C@@H](OC)[C@@H]1OC = true
• O=C(Oc1ccccc1O[C@H]1O[C@H](CO)[C@@H](O)[C@H](O)[C@H]1O)c1ccccc1 = false
• CC(=O)c1c(O)cc(O)c([C@@H]2O[C@H](CO)[C@@H](O)[C@H](O)[C@H]2O)c1O = true
• COC[C@H]1O[C@@H](c2cc(O)ccc2O)[C@H](OC)[C@@H](OC)[C@@H]1OC = true
• O=C(Oc1ccc([C@@H]2O[C@H](CO)[C@@H](O)[C@H](O)[C@H]2O)cc1OC(=O)c1ccccc1)c1ccccc1 = true

Could you check what this test reported for COC[C@H]1O[C@@H](c2c(O)cc(O)cc2O)[C@H](OC)[C@@H](OC)[C@@H]1OC ? false

Could you check what this test reported for O=c1c(-c2ccc(O)cc2)coc2cc(O)cc(O)c12 ? true

Could you check what this test reported for O=C(Oc1ccc(O[C@H]2O[C@H](CO)[C@@H](O)[C@H](O)[C@H]2O)cc1)c1ccccc1 ? true

Could you check what this test reported for COC[C@H]1O[C@@H](c2c(O)cc(O)c(C(C)=O)c2O)[C@H](OC)[C@@H](OC)[C@@H]1OC ? true

Could you check what this test reported for COC[C@H]1O[C@@H](c2cc(OC(=O)c3ccccc3)ccc2OC(=O)c2ccccc2)[C@H](OC)[C@@H](OC)[C@@H]1OC ? true

###

TESTED ON: Acetylcholinesterase (Electrophorus electricus) (UniProt O42275)
Sequence (O42275 24-633 limits assumed): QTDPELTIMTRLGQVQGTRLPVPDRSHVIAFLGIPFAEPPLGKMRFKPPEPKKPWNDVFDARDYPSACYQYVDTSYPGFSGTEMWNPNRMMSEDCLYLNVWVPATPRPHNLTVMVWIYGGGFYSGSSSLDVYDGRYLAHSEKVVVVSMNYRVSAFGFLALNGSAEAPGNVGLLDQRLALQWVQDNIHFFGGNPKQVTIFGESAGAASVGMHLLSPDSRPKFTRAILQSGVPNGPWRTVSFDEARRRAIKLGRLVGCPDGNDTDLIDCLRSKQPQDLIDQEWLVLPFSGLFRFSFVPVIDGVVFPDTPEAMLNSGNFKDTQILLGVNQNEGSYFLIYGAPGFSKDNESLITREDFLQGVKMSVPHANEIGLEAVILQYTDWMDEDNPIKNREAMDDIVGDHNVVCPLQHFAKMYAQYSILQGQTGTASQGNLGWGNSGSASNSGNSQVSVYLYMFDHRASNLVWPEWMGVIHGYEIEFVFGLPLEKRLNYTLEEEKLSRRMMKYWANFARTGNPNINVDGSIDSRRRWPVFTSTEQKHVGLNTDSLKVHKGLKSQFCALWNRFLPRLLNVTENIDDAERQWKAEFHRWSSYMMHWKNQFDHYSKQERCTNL
ASSAY TEXT: Inhibition of electric eel AChE at 100 uM using acetylthiocholine iodide as substrate by Ellman's colorimetric analysis relative to control
Active and inactive are the calls of the source. No cut-off for these calls is given here.
REPORTED METRIC: inhibition

• COC[C@H]1O[C@@H](c2cc(OC(=O)c3ccccc3)ccc2OC(=O)c2ccccc2)[C@H](OC)[C@@H](OC)[C@@H]1OC = 19%
• O=C(Oc1ccc(O[C@H]2O[C@H](CO)[C@@H](O)[C@H](O)[C@H]2O)cc1)c1ccccc1 = inactive
• O=C(Oc1ccc(OC(=O)c2ccccc2)c([C@@H]2O[C@H](CO)[C@@H](O)[C@H](O)[C@H]2O)c1)c1ccccc1 = inactive
• COC[C@H]1O[C@@H](c2ccc(O)c(O)c2)[C@H](OC)[C@@H](OC)[C@@H]1OC = 15%
• COC[C@H]1O[C@@H](c2c(O)cc(O)cc2O)[C@H](OC)[C@@H](OC)[C@@H]1OC = inactive
• O=C(Oc1ccccc1O[C@H]1O[C@H](CO)[C@@H](O)[C@H](O)[C@H]1O)c1ccccc1 = 10%
• O=C(Oc1ccc([C@@H]2O[C@H](CO)[C@@H](O)[C@H](O)[C@H]2O)cc1OC(=O)c1ccccc1)c1ccccc1 = inactive
• O=C(Oc1ccc(O)c([C@@H]2O[C@H](CO)[C@@H](O)[C@H](O)[C@H]2O)c1)c1ccccc1 = inactive
• OC[C@H]1O[C@@H](c2c(O)ccc3ccccc23)[C@H](O)[C@@H](O)[C@@H]1O = inactive
• O=C(Cc1ccccc1)c1c(O)cc(O)c([C@@H]2O[C@H](CO)[C@@H](O)[C@H](O)[C@H]2O)c1O = inactive

Next compound, inhibition to be filled in.
Entry under review: O=c1c(-c2ccc(O)cc2)coc2cc(O)cc(O)c12 . Reported inhibition? 12%
